targetOrTestSystem: HNF4alpha2 (COS-7 nuclear extract) (Homo sapiens, UniProt P41235 1-474)
Sequence: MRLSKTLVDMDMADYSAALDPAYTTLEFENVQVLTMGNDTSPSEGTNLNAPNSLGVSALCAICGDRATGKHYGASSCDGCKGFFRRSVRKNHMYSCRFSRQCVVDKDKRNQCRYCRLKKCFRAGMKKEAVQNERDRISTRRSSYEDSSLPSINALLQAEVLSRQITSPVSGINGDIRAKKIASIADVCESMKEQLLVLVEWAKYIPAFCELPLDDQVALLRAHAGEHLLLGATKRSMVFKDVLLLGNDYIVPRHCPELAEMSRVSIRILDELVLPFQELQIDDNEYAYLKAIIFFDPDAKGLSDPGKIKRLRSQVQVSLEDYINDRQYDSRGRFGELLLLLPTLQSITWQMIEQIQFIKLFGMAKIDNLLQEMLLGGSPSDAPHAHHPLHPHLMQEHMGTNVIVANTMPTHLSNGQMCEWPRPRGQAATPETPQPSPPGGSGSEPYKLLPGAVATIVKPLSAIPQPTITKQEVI
protocolNotes: protein-binding microarray; COS-7 nuclear extract on double-stranded Agilent 4x180k PBM; binding buffer, salt, pH and temperature not given in the material; high values mean tight binding
testParameters: chain copies: 2; label: 3' end of strand 1 on the slide; dsDNA, one strand shown
The full ranking holds about 18,000 sequences; the median of “log2 normalized intensity” is about 0.39, and the highest 2% start at about 6.6. The full list was thinned out, with the highest values kept by preference.
Cut-off 3 log2 normalized intensity on binding signal: below means Y, at or above means N.

{"residueSequence": "GGCTGATGACCTTTGACTGAGATGGGAGCAGCCTAGGGAGATTAGAGTATCGGTCGA", "targetOrTestSystem": "HNF4alpha2 (COS-7 nuclear extract) (Homo sapiens, UniProt P41235 1-474)", "answerLabel": "N"}
{"residueSequence": "TGTGTTTCCACAAACACAGATCAGATATGAGCCTAGGGAGATTAGAGTATCGGTCGA", "targetOrTestSystem": "HNF4alpha2 (COS-7 nuclear extract) (Homo sapiens, UniProt P41235 1-474)", "answerLabel": "Y"}
{"residueSequence": "AAAGTCTTTCTCTTTCAAGATAACAAGGCAGCCTAGGGAGATTAGAGTATCGGTCGA", "targetOrTestSystem": "HNF4alpha2 (COS-7 nuclear extract) (Homo sapiens, UniProt P41235 1-474)", "answerLabel": "Y"}
{"residueSequence": "ACACTTGCCCTTTGCCCTCACTGGTAGAAGGCCTAGGGAGATTAGAGTATCGGTCGA", "targetOrTestSystem": "HNF4alpha2 (COS-7 nuclear extract) (Homo sapiens, UniProt P41235 1-474)", "answerLabel": "N"}
{"residueSequence": "GGCTTCTGGACTATGCCTTGAACTTTAAGGGCCTAGGGAGATTAGAGTATCGGTCGA", "targetOrTestSystem": "HNF4alpha2 (COS-7 nuclear extract) (Homo sapiens, UniProt P41235 1-474)", "answerLabel": "Y"}

Given the entry TTTTCAACATATACTTTGAACTTGTTTTTTGCCTAGGGAGATTAGAGTATCGGTCGA , would its reported binding signal be below 3 log2 normalized intensity? Y

Given the entry CACCACTAGGAAACTGACCTTTGCTCATGAGCCTAGGGAGATTAGAGTATCGGTCGA , would its reported binding signal be below 3 log2 normalized intensity? N

Given the entry AGCAATACATTGAACTTTGAACACCTCTTCGCCTAGGGAGATTAGAGTATCGGTCGA , would its reported binding signal be below 3 log2 normalized intensity? N

Given the entry ACCACATTCTCACCACTAGGAAACTGACCTGCCTAGGGAGATTAGAGTATCGGTCGA , would its reported binding signal be below 3 log2 normalized intensity? N

Given the entry AGAGCTCAGAAGCCACCAGTGCAAATATAAGCCTAGGGAGATTAGAGTATCGGTCGA , would its reported binding signal be below 3 log2 normalized intensity? Y
